HDAC2 activity raw data (signal) listing for selected compounds.
molecular target: HDAC2 (Homo sapiens, UniProt Q92769); construct: purchased Reaction Biology Corporation (assay run by the CRO); assay: HDAC2 inhibition, full IC50 measurement (Reaction Biology; fluorogenic p53 peptide RHKK(Ac)AMC); assay type: biochemical; conditions: Conc. 3.70E-07 M, t1
Sequence (Q92769 whole entry): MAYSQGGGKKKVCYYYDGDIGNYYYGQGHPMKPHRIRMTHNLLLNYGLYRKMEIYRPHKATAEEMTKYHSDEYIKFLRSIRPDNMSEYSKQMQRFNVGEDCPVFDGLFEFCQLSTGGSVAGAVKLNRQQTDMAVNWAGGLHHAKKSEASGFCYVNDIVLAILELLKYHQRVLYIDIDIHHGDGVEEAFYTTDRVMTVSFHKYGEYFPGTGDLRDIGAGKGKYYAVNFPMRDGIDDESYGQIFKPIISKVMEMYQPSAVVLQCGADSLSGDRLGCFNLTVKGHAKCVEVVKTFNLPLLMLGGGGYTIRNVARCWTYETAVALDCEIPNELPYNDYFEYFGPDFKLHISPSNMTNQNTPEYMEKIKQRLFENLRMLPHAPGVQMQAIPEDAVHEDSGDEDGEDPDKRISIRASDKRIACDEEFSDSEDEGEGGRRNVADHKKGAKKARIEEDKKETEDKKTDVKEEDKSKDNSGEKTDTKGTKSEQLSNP
Peptide text beside a SMILES is read from it.
Form field (numeric): enter value without unit.

Here are 2 compounds together with their reported answers.
>  <COMPOUND>
N=C(N)NCCC[C@@H]1NC(=O)[C@H](Cc2c[nH]c3ccccc23)NC(=O)[C@H](CC(=O)O)NC(=O)[C@@H](CO)NC(=O)[C@H](Cc2c[nH]c3ccccc23)NC(=O)[C@H](CCCCCS)NC(=O)[C@H](CCC(N)=O)NC1=O [des4.1.0, SHA-Trp-dSer-Asp-Trp-Arg-Gln] (HELM PEPTIDE1{D.W.R.Q.[O=C([C@H](CCCCCS)N[*:1])[*:2]].W.[dS]}$PEPTIDE1,PEPTIDE1,1:R1-7:R2$$$V2.0)

>  <HDAC2 activity raw data (signal)>
220224

$$$$
>  <COMPOUND>
CCCC[C@H]1NC(=O)[C@H](Cc2ccccc2)NC(=O)[C@H](CCCCCS)NC(=O)[C@@H](CCCNC(=N)N)NC(=O)[C@H](C)NC(=O)[C@@H](CO)NC(=O)[C@@H](C)NC(=O)[C@H](CCCCN)NC1=O [des4.3.1.3, SHA-Phe-dNle-Lys-dAla-dSer-Ala-dArg] (HELM PEPTIDE1{A.[dR].[O=C([C@H](CCCCCS)N[*:1])[*:2]].F.[CCCC[C@@H](N[*:1])C(=O)[*:2]].K.[dA].[dS]}$PEPTIDE1,PEPTIDE1,1:R1-8:R2$$$V2.0)

>  <HDAC2 activity raw data (signal)>
1323328

$$$$

Ask | Could you share which HDAC2 activity raw data (signal) value was measured for CCCC[C@H]1NC(=O)[C@H](Cc2ccccc2)NC(=O)[C@H](CCCCCS)NC(=O)[C@@H](CCCNC(=N)N)NC(=O)[C@H](CC(=O)O)NC(=O)[C@@H](CO)NC(=O)[C@@H](C)NC(=O)[C@H](CCCCN)NC1=O [des4.3.1, SHA-Phe-dNle-Lys-dAla-dSer-Asp-dArg] (HELM PEPTIDE1{D.[dR].[O=C([C@H](CCCCCS)N[*:1])[*:2]].F.[CCCC[C@@H](N[*:1])C(=O)[*:2]].K.[dA].[dS]}$PEPTIDE1,PEPTIDE1,1:R1-8:R2$$$V2.0) ?
Reply | 905304
